Attribute: kon
# TARGET ENTITY: T1, human 5T4-His protein (human, UniProt Q13641 32-355)
# T1 construct: also called recombinant 5T4 protein (human 5T4-his tag); human 5T4 protein; not shown: His tag
# T1 sequence (looked up): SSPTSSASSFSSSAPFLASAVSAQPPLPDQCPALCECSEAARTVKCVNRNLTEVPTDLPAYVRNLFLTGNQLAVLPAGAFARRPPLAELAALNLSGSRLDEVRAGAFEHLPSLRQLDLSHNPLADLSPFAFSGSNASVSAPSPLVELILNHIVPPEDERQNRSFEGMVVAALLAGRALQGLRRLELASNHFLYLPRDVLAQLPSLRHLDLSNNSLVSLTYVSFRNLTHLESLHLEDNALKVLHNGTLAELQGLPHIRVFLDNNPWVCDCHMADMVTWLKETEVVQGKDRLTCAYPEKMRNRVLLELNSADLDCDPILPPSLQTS
# PROTOCOL TEXT: SPR Biacore, Protein A capture
API: value field is a number in M⁻¹ s⁻¹; no unit string.

BINDER	kon [M⁻¹ s⁻¹]
393E9 chimeric antibody (antibody, V domains shown, chimeric mAb) VH: EVKLVESGGGLVQPGGSLSLSCAASGFTFTDYYMSWVRQPPGKALEWLGFIRNKGNGYTTENSASVKGRFTISRDNSQSILYLQMNALRAEDSATYYCARYRGNPHYAMDYWGQGTSVTVSS VL: DIVLTQFPASLAVSLGQRATISCRASESVEFYGTSFLQWYQQKPGQPPKLLIYGASNVESGVPARFSGSGSGTDFSLSIHPVEEDDIAMYFCQQSRKVPSTFGGGTKLEIK	3.24e+06
493E10 chimeric antibody (antibody, V domains shown, chimeric mAb) VH: DVQLVESGGGLVQPGGSRKLSCAASGFTFSSFGMHWVRQAPEKGLEWVAYISSGSSTIYYADTVKGRFTISRDNPKNTLFLQMTSLRSEDTAMYYCARNRAYHREAMDYWGQGTSVTVSS VL: DIVLTQSPASLTVSLGQRATISCRASQSVSSSSYNYMHWYQQKPGQPPKLLIKSASNLESGVPARFSGSGSGTDFTLNIHPVEEEDTATYYCQHSWEIPYTFGGGTKLEIK	642000

Kindly review the next binder as well.
Which kon is reported for this binder? 159D5 chimeric antibody (antibody, V domains shown, chimeric mAb) VH: DVQLVESGGGLVQPGGSRKLSCTASGFTFSNFGMHWVRQAPETGLEWVAYISSGSSTFYYADSVKGRFTISRDNPKNTLFLQMTSLRSEDTAMYFCARSPAYYRYGLDYWGQGTTLTVSS VL: DIVLTQSPASLAVSLGQRATISCRASQSVSSSTFSYMHWYQQKPGQPPKLLIKSSSNLESGVPARFSGSGSGTDFTLNIHPVEEEDTATYYCQHSWEIPYTFGGGTKLEIK
1.16e+06
